Property: IC50; scope: individual compounds
STUDY_TARGET: NaV1.8 (Homo sapiens)
METHOD_SUMMARY: Activity against NaV 1.8 channel (NaV inhibition assay)
Assay type: cell-based

A selection of reference data follows.
CC(C)COC(=O)NC1CCN(c2ccnc(-c3ccccc3O)n2)CC1
10 to 15 µM
CC(C)C[C@@H](O)C(=O)N1CCN(c2cc(-c3ccccc3O)ncn2)CC1
> 15 µM
CC(C)COC(=O)N1CCN(c2cncc(-c3ccccc3F)n2)CC1
> 15 µM
CC(C)C(=O)N[C@@H]1CCN(c2cncc(-c3ccccc3F)n2)C1
> 15 µM

Now for the compound whose IC50 we want.
// returns reported IC50 for input `CC(C)COC(=O)NC1CCN(c2cncc(-c3ccccc3C(F)F)n2)CC1`
< 10 µM
